# system-tested: Peptidyl-prolyl cis-trans isomerase NIMA-interacting 1 (Homo sapiens)
# protocol: qHTS Validation Assay to Find Inhibitors of Pin1 (AID 504536);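 further: 0% = full Pin1 enzyme wells and -100% = no-enzyme wells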
# study-conditions: Pin1 fluorescence polarization peptide binding assay; series mostly up to 57.5 µM
# From the text: NIH Molecular Libraries Probe Production Network [MLPCN] NIH Chemical Genomics Center [NCGC] The unique chemical properties of Pro allow for the adoption of two completely distinct amide bond conformations (cis and trans). […] The goal of this screen is to find small-molecule inhibitors of Pin1 using a fluorescence polarization competition assay. […] Concentration-response curves were fitted to the signals arising from the resulting fluorescence polarization. […]
Results filed as inconclusive are left out. The source made the active and inactive calls. The call rests on the fitted dose curve; in most records, active means well fitted inhibition curve with a large enough effect in the polarisation, with a control signal flat (not every such curve was filed as active); inconclusive means small, poorly fitted or top-dose-only effect, or effect the other way; inactive means flat fitted curve, though single readings scatter; the % refers to the polarisation.
measured-attribute: outcome

Reference set (5 entries):
{"compound": "CN1C2CCC1CC(OC(=O)c1c[nH]c3ccccc13)C2 (stereo unspecified)", "outcome": "inactive"}
{"compound": "C[C@@H]1C(=O)NC2=Nc3cccc(Cl)c3CN21", "outcome": "inactive"}
{"compound": "Nc1cc(Cl)c(NC2=NCCN2)c(Cl)c1", "outcome": "inactive"}
{"compound": "CNCCC(Oc1ccccc1C)c1ccccc1 (stereo unspecified)", "outcome": "inactive"}
{"compound": "C[N+]1(CCCCC[N+]2(C)CCCC2)CCCC1", "outcome": "inactive"}

Memo: CC(=O)O[C@H]1C[C@@H]2CC[C@@H]3[C@H](CC[C@@]4(C)[C@H]3C[C@H]([N+]3(C)CCCCC3)[C@@H]4OC(C)=O)[C@@]2(C)C[C@@H]1[N+]1(C)CCCCC1 , reported outcome: inactive

The recorded outcome for CCCn1c(=O)[nH]c(=O)c2[nH]cnc21 is inactive

---

# Tested on: CASKI
# protocol: Primary qHTS to identify gynecologic anti-cancer compounds using libraries of approved drugs and bioactive compounds (AID 1345084); further: nearly all actives have a fitted effect of over 55% in size
# study-conditions: Gynecologic cancer cell panel viability, ATPlite luminescence, 48 h; series mostly up to 57.5 µM
Inconclusive results are not listed. Activity calls are given as the source filed them. Calls follow the shape of the dose curve; as a rule, active = well fitted cell-killing curve with a large enough effect; inconclusive = small, poorly fitted or top-dose-only effect, or effect the other way; inactive = flat fitted curve, though single readings scatter.
Your response should consist of one outcome taken from 1 for active, -1 for inactive

Illustrative cases are given below, each with its answer.
{"compound": "COC(=O)[C@@H]1CC2=CC(=O)CC[C@]2(C)[C@@]23O[C@@H]2C[C@@]2(C)[C@@H](CC[C@@]24CCC(=O)O4)[C@H]13", "label-class": -1}
{"compound": "COc1cc(-c2ccc(=O)[nH]n2)ccc1OC(F)F", "label-class": -1}
{"compound": "CC(=O)[C@H]1CC[C@H]2[C@@H]3C[C@H](C)C4=CC(=O)CC[C@]4(C)[C@H]3[C@@H](O)C[C@]12C", "label-class": -1}
{"compound": "c1ccc(OCc2ccc(CCCN3CCOCC3)cc2)cc1", "label-class": -1}
{"compound": "CN(C)CC/C=C1/c2ccccc2COc2ccc(CC(=O)O)cc21", "label-class": -1}

Req: For CC(C)(C)NC(=O)[C@@H]1CN(Cc2cccnc2)CCN1C[C@@H](O)C[C@@H](Cc1ccccc1)C(=O)N[C@H]1c2ccccc2C[C@H]1O , what call appears in the results of this test?
Resp: -1

Req: What was the test verdict on C=C(CC)C(=O)c1ccc(OCC(=O)O)c(Cl)c1Cl ?
Resp: -1

Req: Assay result, entry NCCCC[C@H](N[C@@H](CCc1ccccc1)C(=O)O)C(=O)N1CCC[C@H]1C(=O)O — outcome?
Resp: -1

Req: // outcome(item) with item = COC(=O)C1=C(C)NC(C)=C(C(=O)O[C@@H]2CCCN(Cc3ccccc3)C2)[C@@H]1c1cccc([N+](=O)[O-])c1
Resp: -1

Req: Which outcome was assigned to CCCCOc1ccc(C(=O)CCN2CCCCC2)cc1 in this test?
Resp: -1

Req: Short answer needed: outcome of this test for O=C(OCC(O)CO)c1ccccc1Nc1ccnc2cc(Cl)ccc12 (stereo not given) ?
Resp: -1

Req: // outcome(item) with item = CC(=O)N/N=C/c1ccc([N+](=O)[O-])o1
Resp: -1

Req: Record request — test call for COc1cccc2c1C(=O)c1c(O)c3c(c(O)c1C2=O)C[C@@](O)(C(C)=O)C[C@@H]3O[C@H]1C[C@H](N)[C@H](O)[C@H](C)O1
Resp: 1
